Observable: pKi
// field semantics: pKi = negative decimal log of concentration (mol/L)

Fetch value of pKi on Nuclear receptor ROR-alpha (Homo sapiens) for `O=S(=O)(Nc1ccc(C(O)(C(F)(F)F)C(F)(F)F)cc1)c1cccs1` . 6.66
